Measured pEC50 by item
- ASSAYED_TARGET: G-protein coupled receptor 84 (Homo sapiens)
- Sequence (Q9NQS5 whole entry): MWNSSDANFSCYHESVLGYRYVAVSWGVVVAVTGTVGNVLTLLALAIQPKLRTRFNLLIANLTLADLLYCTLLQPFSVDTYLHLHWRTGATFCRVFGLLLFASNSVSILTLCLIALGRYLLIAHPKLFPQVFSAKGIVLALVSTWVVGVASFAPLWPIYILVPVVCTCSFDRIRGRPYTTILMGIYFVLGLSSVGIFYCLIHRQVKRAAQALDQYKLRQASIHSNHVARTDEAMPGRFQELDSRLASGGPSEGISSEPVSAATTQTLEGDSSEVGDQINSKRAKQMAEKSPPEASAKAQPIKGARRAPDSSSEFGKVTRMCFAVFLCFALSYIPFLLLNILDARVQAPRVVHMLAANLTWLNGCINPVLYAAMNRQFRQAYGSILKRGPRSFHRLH
- TEST: Positive allosteric modulation of recombinant human GPR84 expressed in CHO cell membranes co-expressing beta-arrestin2 assessed as increase in [3H]PSB-1584 binding measured after 6 hrs by scintillation counting method
Expect pEC50 as a plain number equal to -log10 of the molar concentration.

Solved entries:
- COMPOUND_STRUCTURE_STRING: "Fc1cc2c(Cc3c[nH]c4cc(Cl)c(F)cc34)c[nH]c2cc1Cl"
  VALUE_REPORTED: 6.89
- COMPOUND_STRUCTURE_STRING: "Fc1ccc2[nH]cc(Cc3c[nH]c4ccc(F)c(F)c34)c2c1F"
  VALUE_REPORTED: 7.08

Reported pEC50 for "Fc1ccc2c(Cc3c[nH]c4cc(F)ccc34)c[nH]c2c1" was 6.52

Reported pEC50 for "Fc1ccc2[nH]cc(Cc3c[nH]c4ccc(F)cc34)c2c1" was 6.70

Reported pEC50 for "Clc1cccc2[nH]cc(Cc3c[nH]c4cccc(Cl)c34)c12" was 6.76

Reported pEC50 for "Fc1cccc2[nH]cc(Cc3c[nH]c4cccc(F)c34)c12" was 5.82

Attribution: ChEMBL document CHEMBL4342430
